- protocol.details: Steady-state pharmacokinetics of aliskiren 300 mg alone, hydrochlorothiazide interaction study, Day 15 (Example 7)
- Format: in vivo, human
- conditions: both sexes, human, in vivo, oral, 300 mg, arithmetic mean, 300 mg daily, Day 15, healthy volunteers N 22
property.label: Cmax (ng/mL)
The reply should be a number in ng/mL, with the unit left off.

For COCCCOc1cc(C[C@@H](C[C@H](N)[C@@H](O)C[C@H](C(=O)NCC(C)(C)C(N)=O)C(C)C)C(C)C)ccc1OC , what is its reported Cmax?
425

----------
- protocol.details: Single-dose 300 mg pharmacokinetic study in healthy and type 2 diabetic subjects (Example 4)
- Assay type: in vivo, human
- conditions: human, plasma, po, 300 mg, arithmetic mean; single oral dose 300 mg, healthy subjects n = 30; read-out: tmax
property.label: Tmax (h)
Expressed in h, but write only the number.

So what does the record say about Tmax for COCCCOc1cc(C[C@@H](C[C@H](N)[C@@H](O)C[C@H](C(=O)NCC(C)(C)C(N)=O)C(C)C)C(C)C)ccc1OC ?
1.97

----------
- protocol.details: Steady-state pharmacokinetics of aliskiren 300 mg alone, digoxin interaction study, Day 7 (Example 8)
- Assay type: in vivo, human
- conditions: human, in vivo, oral, 300 mg, Median, 300 mg daily, Day 7, healthy volunteers N 21
property.label: AUC (ng·h/mL)
Report as a plain number; the unit ng·h/mL is understood.

State the recorded AUC for this entry: COCCCOc1cc(C[C@@H](C[C@H](N)[C@@H](O)C[C@H](C(=O)NCC(C)(C)C(N)=O)C(C)C)C(C)C)ccc1OC
1560

----------
- protocol.details: Single and multiple dose 300 mg pharmacokinetic study in Japanese and Caucasian healthy male subjects (Example 5)
- Type: in vivo, human
- conditions: male, human, plasma, oral, 300 mg, arithmetic mean (SD); single dose 300 mg, Japanese subjects n=19; read-out: AUC0-72
property.label: AUC(0-t) (ng·h/mL)
Write it as a number; the unit ng·h/mL goes unstated.

Look up AUC(0-t) for this molecule: COCCCOc1cc(C[C@@H](C[C@H](N)[C@@H](O)C[C@H](C(=O)NCC(C)(C)C(N)=O)C(C)C)C(C)C)ccc1OC
1390
